Where these numbers come from: PubChem BioAssay

Test: splicing luciferase reporter signal modulators, primary screen, spliceosome inhibition project, cell-based, HEK293, splice +/- reporter (AID 1101);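 also: HEK293 cells carrying a splicing-competent luciferase reporter gene; test concentration not given here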
Conditions: luminescence, 24 h, higher = more signal, called active from +8 up or from −8 down
Please respond with reported z-score for every item in the list.
Answers are plain numbers.

These recorded examples may help you get a feel for the data.
>  <Compound>
[N-]=[N+]=NCc1ccccc1[C@@H]1OC(c2ccc(OCCCO)cc2)=N[C@]1(Cc1ccccc1N=[N+]=[N-])C(=O)NCc1ccccc1

>  <z-score>
-0.856

$$$$
>  <Compound>
CC(=O)NCCCC[C@@H]1NC(=O)[C@@H]2C[C@H](C(=O)NCCCCCCNC(=O)CS)[C@H](c3ccc(O)cc3)N2C1=O

>  <z-score>
0.584

$$$$
>  <Compound>
CCOC(=O)[C@H]1C/C=C/C[C@H](C(=O)OCC)C(=O)O[C@H]2[C@@H](OC)O[C@H](CO)[C@@H](OC(=O)Nc3ccc4c(c3)OCO4)[C@@H]2OC1=O

>  <z-score>
-1.14

$$$$
>  <Compound>
CC(C)Cc1ccc(CN2CC[C@@H](NS(=O)(=O)c3ccccc3)C2)cc1

>  <z-score>
3.53

$$$$
>  <Compound>
CCCNC(=O)[C@@H]1c2ccccc2C(=O)N(Cc2ccccc2)[C@H]1c1ccc(CO)cc1

>  <z-score>
0.0373

$$$$
>  <Compound>
CCOC(=O)C[C@H]1[C@H](OC(=O)Cc2ccc3c(c2)OCO3)[C@@H](NC(=O)c2ccc(-c3ccccc3)cc2)c2cc(OCCCO)ccc2N1C(=O)c1ccccc1

>  <z-score>
-0.586

$$$$

Report z-score, nothing else, for this compound: COC(=O)c1ccc(C(O)C2C=CC3C(=O)N(C)C(=O)C3N2NC(=O)OC(C)(C)C)o1 (configuration not stated) 1.26
